Sourced from the supplement of paper PMC13380429

- System: Vero E6 infected with SARS-CoV-2
- Experimental Details: inhibition of SARS-CoV-2 cytopathic effect; higher = more antiviral protection, active = above 15
- Reported Conditions: 10000 nM; 48 h
Outcome (select one): active, inactive

query: What was the test verdict on `CC[N+](CC)(CC)CCOc1ccc(/C=C/c2ccccc2)cc1` ?
result: inactive

query: Query: recorded result category for CCOc1cc(C=O)ccc1O [ethyl-vanillin] in this test
result: inactive

query: Just curious, what result did CN(C)C(=O)c1cc2cnc(Nc3ccc(N4CCNCC4)cn3)nc2n1C1CCCC1 [ribociclib] get here?
result: inactive

query: Short answer needed: outcome of this test for C=CC(N)CCC(=O)O (centres undefined) [vigabatrin] ?
result: inactive

query: Test call, this molecule: C[C@H](CCC(=O)O)[C@H]1CC[C@H]2[C@@H]3[C@H](O)C[C@@H]4C[C@H](O)CC[C@]4(C)[C@H]3C[C@H](O)[C@]12C [cholic-acid]
result: inactive

New cases:
query: Which result was noted for this molecule in the test: CC(C(=O)O)c1ccc2c(c1)Cc1cccnc1O2 (centres undefined) [pranoprofen]
result: inactive

query: Hi, do you know how `C/C(=N\Nc1nnc2c(n1)[nH]c1c(C)cccc12)c1ccccn1` came out in this test?
result: inactive
